experimentalProtocol: Rate of hydrolysis in homogenized proximal small intestine contents
testParameters: PSI contents; 1.0 mM prodrug, 37 C; release of free steroid by HPLC
experimentalReadout: Tot. act. (µmol/min)

| compound | experimentalReadout | unitSymbol | readoutNumber |
| --- | --- | --- | --- |
| CC12CCC(=O)C=C1CCC1C2C(O)CC2(C)C1CCC2(O)C(=O)COC1OC(CO)C(O)C(O)C1O (stereo not drawn) [Compound 11] | Tot. act. | µmol/min | 0.02 |
| CC12C=CC(=O)C=C1CCC1C2C(O)CC2(C)C1CCC2(O)C(=O)COC1OC(CO)C(O)C(O)C1O (stereo not drawn) [Compound 2] | Tot. act. | µmol/min | 0.07 |
| CC12CCC(=O)C=C1CCC1C3CCC(O)(C(=O)COC4OC(CO)C(O)C(O)C4O)C3(C)CC(O)C12F (stereo not drawn) [Compound 7] | Tot. act. | µmol/min | 0.08 |
| CC12CCC(=O)C=C1CCC1C3CCC(O)(C(=O)COC4OC(CO)C(O)C(O)C4O)C3(C)CC(O)C12F (stereo not drawn) [Compound 12] | Tot. act. | µmol/min | 0.01 |
| CC1CC2C3CCC4=CC(=O)C=CC4(C)C3(F)C(O)CC2(C)C1(O)C(=O)COC1OC(CO)C(O)C(O)C1O (stereo not drawn) [Compound 9] | Tot. act. | µmol/min | 0.004 |
| CC12C=CC(=O)C=C1CCC1C2C(O)CC2(C)C1CCC2(O)C(=O)COC1OC(CO)C(OC2OC(CO)C(O)C(O)C2O)C(O)C1O (stereo not drawn) | Tot. act. | µmol/min | 0.11 |
| CC12C=CC(=O)C=C1CCC1C2C(O)CC2(C)C1CCC2(O)C(=O)COC1OC(CO)C(O)C(O)C1O (stereo not drawn) [Compound 10] | Tot. act. | µmol/min | 0.23 |
| CC1CC2C3CCC4=CC(=O)C=CC4(C)C3(F)C(O)CC2(C)C1(O)C(=O)COC1OC(CO)C(O)C(O)C1O (stereo not drawn) [Compound 1] | Tot. act. | µmol/min | 0.07 |
| CC12CCC(=O)C=C1CCC1C2C(O)CC2(C)C1CCC2(O)C(=O)COC1OC(CO)C(O)C(O)C1O (stereo not drawn) [Compound 5] | Tot. act. | µmol/min | 0.10 |
